Target or system Adenosine A2 receptor (Rattus norvegicus, UniProt P29276+P30543); recorded quantity IC50.
Output spec: scalar in µM, unitless text.

Answered examples (8):
INSERT INTO measurements (line_notation, numeric_readout) VALUES
  ('Nc1nc2ccc(Cl)cc2n2c(-c3ccccc3)nnc12', 0.021),
  ('FC(F)(F)c1nnc2c(NC3CCCC3)nc3ccc(Cl)cc3n12', 2.1),
  ('Nc1nc2ccc(Cl)cc2c2nc(-c3ccco3)nn12', 0.0028),
  ('Nc1nc2ccccc2n2cnnc12', 0.4),
  ('Oc1cccc(C2=CSC3=Nc4ccccc4CN23)c1', 0.53),
  ('CCc1nnc2c(N)nc3cc(Cl)c(Cl)cc3n12', 0.023),
  ('Nc1nc2cc(F)ccc2n2cnnc12', 0.56),
  ('CC(C)Nc1nc2ccccc2n2c(C(F)(F)F)nnc12', 4.1);

# compound CCNc1nc2ccccc2n2cnnc12 ; its IC50 = 110

# compound CCNc1nc2cc(F)ccc2n2cnnc12 ; its IC50 = 26

# compound CCN(CC)c1nc2ccccc2n2cnnc12 ; its IC50 = 42
